- MEASURED ON: Grb2 SH2 (UniProt P62993)
- Sequence (P62993 whole entry, looked up): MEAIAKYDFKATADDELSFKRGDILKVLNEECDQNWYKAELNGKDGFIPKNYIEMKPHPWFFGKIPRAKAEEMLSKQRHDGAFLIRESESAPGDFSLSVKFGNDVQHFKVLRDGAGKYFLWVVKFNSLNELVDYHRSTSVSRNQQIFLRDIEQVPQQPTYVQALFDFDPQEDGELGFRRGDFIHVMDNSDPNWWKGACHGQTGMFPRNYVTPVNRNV
- TEST: SH2 binding enrichment of the phosphorylated peptide, bacterial display (enrichment ratio); higher = better substrate or ligand; peptides without Tyr show the background
Rule: SH2 binding enrichment of 1 or more gives satisfied; anything lower gives not satisfied.

           sequence_content        cat
0  CKPGFYNLKEK [LAMA1_Y490]  satisfied
1   VKANTYEKYWP [GATM_Y100]  satisfied
2   RPASVYTKRCS [CPT2_Y508]  satisfied

Ask: Identify whether the reported SH2 binding enrichment of the following sequence is 1 or greater: NLNGKYNKPRA [ANGPTL3_Y417]
Reply: satisfied

Ask: Identify whether the reported SH2 binding enrichment of the following sequence is 1 or greater: LYEDRYLLGPS [ASS1_Y87_T91P]
Reply: not satisfied

Ask: Identify whether the reported SH2 binding enrichment of the following sequence is 1 or greater: VQSASYLNDCL [MCM3AP_Y864_A867D]
Reply: satisfied

* * *

- MEASURED ON: EPHB1 (UniProt P54762)
- Sequence (P54762 whole entry, looked up): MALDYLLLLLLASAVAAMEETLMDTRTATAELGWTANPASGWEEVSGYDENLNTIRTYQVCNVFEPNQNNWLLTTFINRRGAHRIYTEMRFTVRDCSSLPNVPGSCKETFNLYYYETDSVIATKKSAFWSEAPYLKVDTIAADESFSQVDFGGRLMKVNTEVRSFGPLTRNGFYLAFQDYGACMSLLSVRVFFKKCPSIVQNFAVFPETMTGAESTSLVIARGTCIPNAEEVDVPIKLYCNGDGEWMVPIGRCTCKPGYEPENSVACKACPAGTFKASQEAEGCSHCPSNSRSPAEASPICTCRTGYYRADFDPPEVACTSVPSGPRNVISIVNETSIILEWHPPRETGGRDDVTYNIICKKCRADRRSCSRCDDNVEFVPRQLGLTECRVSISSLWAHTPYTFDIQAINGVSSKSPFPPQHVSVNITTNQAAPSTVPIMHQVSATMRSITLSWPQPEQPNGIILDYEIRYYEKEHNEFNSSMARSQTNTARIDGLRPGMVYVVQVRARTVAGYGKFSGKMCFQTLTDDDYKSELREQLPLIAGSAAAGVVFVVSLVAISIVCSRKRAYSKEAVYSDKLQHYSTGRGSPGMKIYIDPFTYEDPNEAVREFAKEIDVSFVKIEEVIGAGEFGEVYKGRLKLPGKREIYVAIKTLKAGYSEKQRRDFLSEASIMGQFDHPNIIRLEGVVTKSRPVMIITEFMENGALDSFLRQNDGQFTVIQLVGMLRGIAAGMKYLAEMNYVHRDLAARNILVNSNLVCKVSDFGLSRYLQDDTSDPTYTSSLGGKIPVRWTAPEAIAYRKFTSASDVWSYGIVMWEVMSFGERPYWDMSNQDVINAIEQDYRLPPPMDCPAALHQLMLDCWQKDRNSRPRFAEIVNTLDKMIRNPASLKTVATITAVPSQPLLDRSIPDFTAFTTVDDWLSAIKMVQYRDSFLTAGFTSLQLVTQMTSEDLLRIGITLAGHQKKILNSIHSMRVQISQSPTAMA
- TEST: phosphorylation enrichment, bacterial display (enrichment ratio); higher = better substrate or ligand; peptides without Tyr show the background
Rule: phosphorylation enrichment of 0.7 or more gives Condition met; anything lower gives Condition not met.

These solved cases illustrate the format of a correct answer.
>>> print(df.to_string())
                   sequence_content                cat
0    VRRRSYSAGNA [KANK1_Y324_K321R]  Condition not met
1        AEFGLYGAMVR [VSX2_Y222_YF]      Condition met
2      PQGVSYIYTID [DCX_Y103_R102S]      Condition met
3  SVTCTYSPALF [TP53_Y126_N131Y_YF]      Condition met

Ask: Identify whether the reported phosphorylation enrichment of the following sequence is 0.7 or greater: ESLSSYWESAK [APOC2_Y47]
Reply: Condition not met

Ask: Identify whether the reported phosphorylation enrichment of the following sequence is 0.7 or greater: NIEPIYLNMLL [ATR_Y317_V316I]
Reply: Condition met

Ask: Identify whether the reported phosphorylation enrichment of the following sequence is 0.7 or greater: ESLRSYDVMDV [KCNQ2_Y562_P561S]
Reply: Condition not met

Ask: Identify whether the reported phosphorylation enrichment of the following sequence is 0.7 or greater: RAMPVYEKAEH [TP63_Y231_K232E]
Reply: Condition not met

* * *

- MEASURED ON: EPHB1 (UniProt P54762)
- TEST: phosphorylation enrichment, bacterial display (enrichment ratio); higher = better substrate or ligand; peptides without Tyr show the background
Catalogue of phosphorylation enrichment values
Form: value (number only, do not type unit).

Study these solved cases before continuing.
>>> print(df.to_string())
                    sequence_content  observed_result
0    RGKLFYQEVPA [METTL11B_Y76_A72G]             1.48
1  IFSGIYFKPES [L2HGDH_Y102_H98Y_YF]             1.84
2       EPNSRYTFKLE [USH2A_Y3745_YF]            0.479
3      RKVLVYDKLNV [ROR2_Y624_N620K]             1.37

// sample MKKKTYAMGGG [GAN_Y424_I423T] , its phosphorylation enrichment was 0.857

// sample KPMDTYYDSTR [DYNC2H1_Y2230] , its phosphorylation enrichment was 0.632

// sample ETKENYGKTLK [CHL1_Y291] , its phosphorylation enrichment was 0.348

// sample ADELEYSRTGL [MMUT_Y287_G284E] , its phosphorylation enrichment was 0.596

// sample VNFGAYINDFK [GLB1_Y488_YF] , its phosphorylation enrichment was 0.545

// sample RHLQEYQDLLN [GFAP_Y349] , its phosphorylation enrichment was 0.513

// sample GYGGGYGGVLT [KRT19_Y65_A60G] , its phosphorylation enrichment was 0.359

// sample SPPPAFTPMSG [ERBB4_Y1056_Y1056F] , its phosphorylation enrichment was 0.349

// sample FRPPYYHRNCM [HGD_Y334] , its phosphorylation enrichment was 0.429

// sample LALTVYADCLA [ABCA4_Y2063_G2059A] , its phosphorylation enrichment was 1.08

// sample KLPYPYDDPFS [GPX2_Y127] , its phosphorylation enrichment was 0.458

// sample TLNHQYDYTFD [CSNK1A1_Y292] , its phosphorylation enrichment was 0.512

// sample KNGSNYVVKGN [KIT_Y823_D820G] , its phosphorylation enrichment was 0.346

// sample ADYPDYKYRPR [SOX11_Y116] , its phosphorylation enrichment was 0.48

// sample TDEFEYDELIV [TGM1_Y136_YF] , its phosphorylation enrichment was 1.12

// sample LEGEEYRMSGE [KRT3_Y511] , its phosphorylation enrichment was 0.891

// sample RVSSVYTRSTG [CCR5_Y339_A335V] , its phosphorylation enrichment was 0.945

// sample VNLVLHLSIAK [FBXO15_Y496_Y496H] , its phosphorylation enrichment was 0.583

// sample DLDTDYGSGFP [RNASEH2A_Y206_YF] , its phosphorylation enrichment was 0.585

* * *

- MEASURED ON: EPHB1 (UniProt P54762)
- TEST: phosphorylation enrichment, bacterial display (enrichment ratio); higher = better substrate or ligand; peptides without Tyr show the background
Rule: phosphorylation enrichment of 0.9 or more gives criterion met; anything lower gives criterion not met.

These solved cases illustrate the format of a correct answer.
>>> print(df.to_string())
                 sequence_content                cat
0  LTNDRYVATLT [IL6ST_Y396_L397V]  criterion not met
1  RLLCEYQELMN [KRT75_Y434_R432C]      criterion met
2   DQLVKHGVNPG [TMPO_Y127_Y127H]  criterion not met

Ask: Identify whether the reported phosphorylation enrichment of the following sequence is 0.9 or greater: LTYHMYADPNI [SOS1_Y618_F623I]
Reply: criterion met

Ask: Identify whether the reported phosphorylation enrichment of the following sequence is 0.9 or greater: KDHPDYKYQPR [SOX10_Y171]
Reply: criterion not met

Ask: Identify whether the reported phosphorylation enrichment of the following sequence is 0.9 or greater: EKLIQYCQSKS [AKR1B1_Y199_G204S]
Reply: criterion not met

Ask: Identify whether the reported phosphorylation enrichment of the following sequence is 0.9 or greater: KLQKFYRQNPD [EHHADH_Y683_YF]
Reply: criterion not met

Ask: Identify whether the reported phosphorylation enrichment of the following sequence is 0.9 or greater: LYSNAYLSDLA [ALDH1A1_Y119_N121S]
Reply: criterion met

Ask: Identify whether the reported phosphorylation enrichment of the following sequence is 0.9 or greater: EYKKKYSDADI [CKAP5_Y1860]
Reply: criterion not met

Ask: Identify whether the reported phosphorylation enrichment of the following sequence is 0.9 or greater: VFLGAYDCFLP [SLC22A5_Y486_R488C_YF]
Reply: criterion met

Ask: Identify whether the reported phosphorylation enrichment of the following sequence is 0.9 or greater: LARDMDDKEFF [MET_Y1230_Y1230D_YF]
Reply: criterion not met

Ask: Identify whether the reported phosphorylation enrichment of the following sequence is 0.9 or greater: WHYTFYNELRV [ACTC1_Y93_H90Y]
Reply: criterion met

Ask: Identify whether the reported phosphorylation enrichment of the following sequence is 0.9 or greater: RLAQRYLIWEC [SCN5A_Y694]
Reply: criterion met

Ask: Identify whether the reported phosphorylation enrichment of the following sequence is 0.9 or greater: QTLEAYIRWNK [SPAST_Y604]
Reply: criterion not met

* * *

- Test system: AncSZ
- TEST: phosphorylation enrichment, bacterial display (enrichment ratio); higher = better substrate or ligand; peptides without Tyr show the background
MEASURED PROPERTY: phosphorylation enrichment
Form: value (number only, do not type unit).

In [3]: df
Out[3]:
                       sequence_content           measured_property  observed_result
0  NVADHYRVFKP [ATP6V0D2_Y271_G272R_YF]  phosphorylation enrichment            0.708
1               PNEAVYTKMMT [G6PD_Y401]  phosphorylation enrichment                1

// sample LLKMMYLMLDN [STAT1_Y203_K201M] , its phosphorylation enrichment was 1.08

// sample SGDVQYRSSVR [FREM2_Y2158_T2153S] , its phosphorylation enrichment was 0.442

// sample SDVNKYSTAFG [GJB3_Y16_G12D] , its phosphorylation enrichment was 0.521

// sample ADLLDYIKALN [HPRT1_Y81] , its phosphorylation enrichment was 1.07

// sample KLNNEYLELNY [MME_Y497] , its phosphorylation enrichment was 1.08

// sample EADRKYEEVAR [TPM3_Y163] , its phosphorylation enrichment was 1.29

// sample GMRHGHGVRQS [JPH2_Y141_Y141H] , its phosphorylation enrichment was 0.646
